targetSystem: BTK (Homo sapiens)
Sequence (Q06187 whole entry): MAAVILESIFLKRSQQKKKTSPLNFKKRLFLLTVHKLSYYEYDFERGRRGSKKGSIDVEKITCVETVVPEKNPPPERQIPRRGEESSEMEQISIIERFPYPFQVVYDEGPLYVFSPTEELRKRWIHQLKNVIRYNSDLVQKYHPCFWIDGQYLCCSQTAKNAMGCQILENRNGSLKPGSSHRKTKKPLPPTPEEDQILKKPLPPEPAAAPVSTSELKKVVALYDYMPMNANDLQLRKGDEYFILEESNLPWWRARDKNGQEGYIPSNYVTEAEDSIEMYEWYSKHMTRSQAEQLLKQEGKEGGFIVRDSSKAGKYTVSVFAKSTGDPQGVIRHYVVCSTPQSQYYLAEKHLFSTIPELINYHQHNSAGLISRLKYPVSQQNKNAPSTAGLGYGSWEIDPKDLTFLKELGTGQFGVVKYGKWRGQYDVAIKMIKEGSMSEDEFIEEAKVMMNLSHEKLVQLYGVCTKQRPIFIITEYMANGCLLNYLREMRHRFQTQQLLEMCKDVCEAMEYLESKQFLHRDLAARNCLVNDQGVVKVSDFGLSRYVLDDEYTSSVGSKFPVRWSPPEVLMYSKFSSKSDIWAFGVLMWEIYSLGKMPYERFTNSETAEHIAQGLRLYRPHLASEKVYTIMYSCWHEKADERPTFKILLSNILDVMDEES
experimentalProtocol: BTK degradation, DC50 and Dmax of Table 1 (cell line not given)
Type: cell-based
Parameters: endogenous in cells
particulars: concentration giving 50% reduction of BTK expression level
property: DC50

Below, 5 molecules whose answers are already recorded.
Nc1ncnc2c1c(-c1ccc(Oc3ccccc3)cc1)nn2[C@@H]1CCCN(C2CCN(C(=O)N3CCC(CCN4CCC(c5ccc6c(c5)CN(C5CCC(=O)NC5=O)C6=O)CC4)CC3)CC2)C1 (some centres unmarked): 10 to 50 nM
Nc1ncnc2c1c(-c1ccc(Oc3ccccc3)cc1)nn2[C@@H]1CCCN(C(=O)N2CCC(N3CCN(c4ccc5c(c4)C(=O)N(C4CCC(=O)NC4=O)C5=O)CC3)CC2)C1 (some centres unmarked): < 10 nM
Nc1ncnc2c1c(-c1ccc(Oc3ccccc3)cc1)nn2[C@@H]1CCCN(C2CCN(C(=O)N3CCC(CC4CCN(c5ccc6c(c5)CN(C5CCC(=O)NC5=O)C6=O)CC4)CC3)CC2)C1 (some centres unmarked): 10 to 50 nM
Nc1ncnc2c1c(-c1ccc(Oc3ccccc3)cc1)nn2[C@@H]1CCCN(CC2CCN(CCN3CCN(c4ccc5c(c4)CN(C4CCC(=O)NC4=O)C5=O)CC3)CC2)C1 (some centres unmarked): 10 to 50 nM
Nc1ncnc2c1c(-c1ccc(Oc3ccccc3)cc1)nn2[C@@H]1CCCN(C2CCN(CCCN3CCN(c4ccc5c(c4)C(=O)N(C4CCC(=O)NC4=O)C5=O)CC3)CC2)C1 (some centres unmarked): > 50 nM

Entry under test: Nc1ncnc2c1c(-c1ccc(Oc3ccccc3)cc1)nn2[C@@H]1CCCN(C2CCN(C(=O)N3CCN(CCCN4CCN(c5ccc6c(c5)C(=O)N(C5CCC(=O)NC5=O)C6=O)CC4)CC3)CC2)C1 (some centres unmarked) . Its DC50 was > 50 nM

Entry under test: Nc1ncnc2c1c(-c1ccc(Oc3ccccc3)cc1)nn2[C@@H]1CCCN(C2CCN(CCCC3CCN(c4ccc5c(c4)CN(C4CCC(=O)NC4=O)C5=O)CC3)CC2)C1 (some centres unmarked) . Its DC50 was > 50 nM

Entry under test: Nc1ncnc2c1c(-c1ccc(Oc3ccccc3)cc1)nn2C1CCN(C(=O)N2CCC(CCCN3CCC(c4ccc5c(c4)CN(C4CCC(=O)NC4=O)C5=O)CC3)CC2)CC1 (centres unmarked) . Its DC50 was > 50 nM

Entry under test: Nc1ncnc2c1c(-c1ccc(Oc3ccccc3)cc1)nn2C1CCN(C(=O)N2CCC(CCN3CCN(c4ccc5c(c4)CN(C4CCC(=O)NC4=O)C5=O)CC3)CC2)CC1 (centres unmarked) . Its DC50 was 10 to 50 nM

* * *

targetSystem: BTK (Homo sapiens)
experimentalProtocol: Degradation of BTK protein in Namalwa cells (Western blot; DC50, Dmax)
particulars: read-out: Dmax (BTK degradation)
property: Dmax

Bench note, BTK (Homo sapiens): Nc1ncnc2c1c(-c1ccc(Oc3ccccc3)cc1)cn2C1CCN(CCN2CC(N3CCN(c4ccc5c(c4)CN(C4CCC(=O)NC4=O)C5=O)CC3)C2)CC1 (centres unmarked) [Compound 464] , Dmax reads > 75%

Bench note, BTK (Homo sapiens): Nc1ncnc2c1c(-c1ccc(Oc3ccccc3)cc1)nn2C1CCN(CC2CCN(/C=C/C(=O)CN3CCN(c4ccc5c(c4)CN(C4CCC(=O)NC4=O)C5=O)CC3)CC2)CC1 (centres unmarked) [Compound 420] , Dmax reads > 90%

Bench note, BTK (Homo sapiens): Nc1ncnc2c1c(-c1ccc(Oc3ccccc3)cc1)nn2C1CCN(C2CCN(CC3CN(c4ccc5c(c4)C(=O)N(C4CCC(=O)NC4=O)C5=O)C3)CC2)CC1 (centres unmarked) [Compound 433] , Dmax reads > 90%

Bench note, BTK (Homo sapiens): Nc1ncnc2c1c(-c1ccc(Oc3ccccc3)cc1)nn2C1CCN(CC2CN(CC3CCN(c4ccc5c(c4)CN(C4CCC(=O)NC4=O)C5=O)CC3)C2)CC1 (centres unmarked) [Compound 440] , Dmax reads > 90%

Bench note, BTK (Homo sapiens): Nc1ncnc2c1c(-c1ccc(Oc3ccccc3)cc1)nn2C1CCN(CCN2CCC(CN3CCN(c4ccc5c(c4)C(=O)N(C4CCC(=O)NC4=O)C5=O)CC3)CC2)CC1 (centres unmarked) [Compound 453] , Dmax reads > 90%

* * *

targetSystem: BTK (Homo sapiens)
experimentalProtocol: BTK degradation, DC50 and Dmax of Table 1 (cell line not given)
Type: cell-based
Design: endogenous in cells
particulars: concentration giving 50% reduction of BTK expression level
DC50 values for the compounds below.

Nc1ncnc2c1c(-c1ccc(Oc3ccccc3)cc1)nn2C1CCN(C(=O)N2CCN(CCCN3CCC(c4ccc5c(c4)C(=O)N(C4CCC(=O)NC4=O)C5=O)CC3)CC2)CC1 (stereo not shown) [Compound 123]: > 0.05 µM
Nc1ncnc2c1c(-c1ccc(Oc3ccccc3)cc1)nn2C1CCN(C(=O)N2CCN(CC3CCN(c4ccc5c(c4)C(=O)N(C4CCC(=O)NC4=O)C5=O)CC3)CC2)CC1 (stereo not shown) [Compound 87]: 0.01 to 0.05 µM
Nc1ncnc2c1c(-c1ccc(Oc3ccccc3)cc1)nn2C1CCCN(CCOCCOCCN2CCN(c3ccc4c(c3)C(=O)N(C3CCC(=O)NC3=O)C4=O)CC2)C1 (stereo not shown) [Compound 3]: < 0.01 µM
Nc1ncnc2c1c(-c1ccc(Oc3ccccc3)cc1)nn2[C@@H]1CCCN(C(=O)N2CCN(CCN3CCN(c4ccc5c(c4)CN(C4CCC(=O)NC4=O)C5=O)CC3)CC2)C1 (stereo partly shown) [Compound 66]: < 0.01 µM
Nc1ncnc2c1c(-c1ccc(Oc3ccccc3)cc1)nn2[C@@H]1CCCN(C(=O)N2CCC(CCCN3CCC(c4ccc5c(c4)C(=O)N(C4CCC(=O)NC4=O)C5=O)CC3)CC2)C1 (stereo partly shown) [Compound 115]: > 0.05 µM
Nc1ncnc2c1c(-c1ccc(Oc3ccccc3)cc1)nn2[C@@H]1CCCN(CC2CCN(CCC3CCN(c4ccc5c(c4)C(=O)N(C4CCC(=O)NC4=O)C5=O)CC3)CC2)C1 (stereo partly shown) [Compound 131]: 0.01 to 0.05 µM
Nc1ncnc2c1c(-c1ccc(Oc3ccccc3)cc1)nn2C1CCN(C(=O)N2CCC(CCCC3CCN(c4ccc5c(c4)CN(C4CCC(=O)NC4=O)C5=O)CC3)CC2)CC1 (stereo not shown) [Compound 126]: > 0.05 µM
Nc1ncnc2c1c(-c1ccc(Oc3ccccc3)cc1)nn2C1CCN(C(=O)N2CCN(CCN3CCN(c4ccc5c(c4)C(=O)N(C4CCC(=O)NC4=O)C5=O)CC3)CC2)CC1 (stereo not shown) [Compound 95]: 0.01 to 0.05 µM

Bench note, BTK (Homo sapiens): Nc1ncnc2c1c(-c1ccc(Oc3ccccc3)cc1)nn2[C@@H]1CCCN(C2CCN(C(=O)N3CCN(CCC4CCN(c5ccc6c(c5)C(=O)N(C5CCC(=O)NC5=O)C6=O)CC4)CC3)CC2)C1 (stereo partly shown) [Compound 177] , DC50 reads 0.01 to 0.05 µM

Bench note, BTK (Homo sapiens): Nc1ncnc2c1c(-c1ccc(Oc3ccccc3)cc1)nn2[C@@H]1CCCN(C2CCN(CCC3CCN(c4ccc5c(c4)C(=O)N(C4CCC(=O)NC4=O)C5=O)CC3)CC2)C1 (stereo partly shown) [Compound 145] , DC50 reads > 0.05 µM

* * *

Dmax values for the compounds below.
targetSystem: BTK (Homo sapiens)
experimentalProtocol: Degradation of BTK protein in Namalwa cells (Western blot; DC50, Dmax)
particulars: read-out: Dmax (BTK degradation)

Below, 4 compounds whose answers are already recorded.
Nc1ncnc2c1c(-c1ccc(Oc3ccccc3)cc1)nn2C1CCN(CCN2CCC(CSc3ccc4c(c3)CN(C3CCC(=O)NC3=O)C4=O)CC2)CC1 (centres unmarked) [Compound 470]: > 90%
NC(=O)c1c(-c2ccc(Oc3ccccc3)cc2)nn2c1NCC[C@H]2C1CCN(CC2CCN(C(=O)N3CCN(Cc4ccc5c(c4)CN(C4CCC(=O)NC4=O)C5=O)CC3)CC2)CC1 (some centres unmarked) [Compound 400]: > 50%
Nc1ncnc2c1c(-c1ccc(Oc3ccccc3)cc1)nn2C1CCN(CCN2CCC(N3CCN(c4ccc5c(c4)CN(C4CCC(=O)NC4=O)C5=O)CC3)C2)CC1 (centres unmarked) [Compound 460]: > 75%
Nc1ncnc2c1c(-c1ccc(Oc3ccccc3)cc1)nn2[C@@H]1CCCN(C(=O)N2CC(N3CCN(c4ccc5c(c4)CN([C@@H]4CCC(=O)NC4=O)C5=O)CC3)C2)C1 [Compound 492]: > 90%

Entry under test: NC(=O)c1c(-c2ccc(Oc3ccccc3)cc2)nn2c1NCC[C@H]2C1CCN(CC2CCN(C(=O)N3CCN(c4ccc5c(c4)CN(C4CCC(=O)NC4=O)C5=O)CC3)CC2)CC1 (some centres unmarked) [Compound 398] . Its Dmax was > 50%

* * *

targetSystem: BTK (Homo sapiens)
experimentalProtocol: Degradation of BTK protein in Namalwa cells (Western blot; DC50, Dmax)
particulars: BTK degradation; cell line not given
DC50 values for the molecules below.

Below, 2 molecules whose answers are already recorded.
NC(=O)c1c(-c2ccc(Oc3ccccc3)cc2)nn2c1NCCC2C1CCN(C(=O)N2CCN(CCN3CCC(c4ccc5c(c4)CN(C4CCC(=O)NC4=O)C5=O)CC3)CC2)CC1 (centres unmarked): 10 to 50 nM
Nc1ncnc2c1c(-c1ccc(Oc3ccccc3)cc1)nn2C1CCN(C2CCN(CCCN3CCC(c4ccc5c(c4)CN(C4CCC(=O)NC4=O)C5=O)CC3)CC2)CC1 (centres unmarked): 10 to 50 nM

Entry under test: NC(=O)c1c(-c2ccc(Oc3ccccc3)cc2)nn2c1NCC[C@H]2C1CCN(C(=O)N2CCN(CCC3CCN(c4ccc5c(c4)CN(C4CCC(=O)NC4=O)C5=O)CC3)CC2)CC1 (some centres unmarked) . Its DC50 was 10 to 50 nM

Entry under test: Nc1ncnc2c1c(-c1ccc(Oc3ccccc3)cc1)nn2C1CCN(C2CCN(C(=O)N3CCC(CN4CCN(c5ccc6c(c5)CN(C5CCC(=O)NC5=O)C6=O)CC4)CC3)CC2)CC1 (centres unmarked) . Its DC50 was < 10 nM

Entry under test: Nc1ncnc2c1c(-c1ccc(Oc3ccccc3)cc1)nn2C1CCN(CC2CCN(CCCC3CCN(c4ccc5c(c4)CN(C4CCC(=O)NC4=O)C5=O)CC3)CC2)CC1 (centres unmarked) . Its DC50 was 10 to 50 nM

Entry under test: Nc1ncnc2c1c(-c1ccc(Oc3ccccc3)cc1)nn2C1CCN(C2CCN(C(=O)N3CCC(CCCN4CCC(c5ccc6c(c5)C(=O)N(C5CCC(=O)NC5=O)C6=O)CC4)CC3)CC2)CC1 (centres unmarked) . Its DC50 was 10 to 50 nM

Entry under test: NC(=O)c1c(-c2ccc(Oc3ccccc3)cc2)nn2c1NCC[C@H]2C1CCN(C2CCN(C(=O)N3CCC(C4CCN(c5ccc6c(c5)CN(C5CCC(=O)NC5=O)C6=O)CC4)CC3)CC2)CC1 (some centres unmarked) . Its DC50 was < 10 nM

Entry under test: NC(=O)c1c(-c2ccc(Oc3ccccc3)cc2)nn2c1NCC[C@H]2C1CCN(C2CCN(CCN3CCN(c4ccc5c(c4)CN(C4CCC(=O)NC4=O)C5=O)CC3)CC2)CC1 (some centres unmarked) . Its DC50 was > 50 nM

Entry under test: NC(=O)c1c(-c2ccc(Oc3ccccc3)cc2)nn2c1NCCC2C1CCN(C2CCN(C(=O)N3CCN(Cc4ccc5c(c4)C(=O)N(C4CCC(=O)NC4=O)C5=O)CC3)CC2)CC1 (centres unmarked) . Its DC50 was > 50 nM

Entry under test: NC(=O)c1c(-c2ccc(Oc3ccccc3)cc2)nn2c1NCCC2C1CCN(CC2CCN(CCN3CCC(c4ccc5c(c4)C(=O)N(C4CCC(=O)NC4=O)C5=O)CC3)CC2)CC1 (centres unmarked) . Its DC50 was 10 to 50 nM

Entry under test: NC(=O)c1c(-c2ccc(Oc3ccccc3)cc2)nn2c1NCCC2C1CCN(CC2CCN(C(=O)N3CCN(C4CCN(c5ccc6c(c5)CN(C5CCC(=O)NC5=O)C6=O)CC4)CC3)CC2)CC1 (centres unmarked) . Its DC50 was < 10 nM

Entry under test: Nc1ncnc2c1c(-c1ccc(Oc3ccccc3)cc1)nn2C1CCN(C2CCN(CCN3CCC(c4ccc5c(c4)CN(C4CCC(=O)NC4=O)C5=O)CC3)CC2)CC1 (centres unmarked) . Its DC50 was 10 to 50 nM

Entry under test: NC(=O)c1c(-c2ccc(Oc3ccccc3)cc2)nn2c1NCC[C@H]2C1CCN(C(=O)N2CCC(CN3CCC(c4ccc5c(c4)C(=O)N(C4CCC(=O)NC4=O)C5=O)CC3)CC2)CC1 (some centres unmarked) . Its DC50 was 10 to 50 nM

Entry under test: NC(=O)c1c(-c2ccc(Oc3ccccc3)cc2)nn2c1NCC[C@H]2C1CCN(C2CCN(C(=O)N3CCC(C4CCN(c5ccc6c(c5)C(=O)N(C5CCC(=O)NC5=O)C6=O)CC4)CC3)CC2)CC1 (some centres unmarked) . Its DC50 was 10 to 50 nM

Entry under test: NC(=O)c1c(-c2ccc(Oc3ccccc3)cc2)nn2c1NCCC2C1CCN(CC2CCN(C(=O)N3CCC(CC4CCN(c5ccc6c(c5)C(=O)N(C5CCC(=O)NC5=O)C6=O)CC4)CC3)CC2)CC1 (centres unmarked) . Its DC50 was 10 to 50 nM

Entry under test: NC(=O)c1c(-c2ccc(Oc3ccccc3)cc2)nn2c1NCCC2C1CCN(CC2CCN(CCN3CCN(c4ccc5c(c4)CN(C4CCC(=O)NC4=O)C5=O)CC3)CC2)CC1 (centres unmarked) . Its DC50 was 10 to 50 nM

Entry under test: Nc1ncnc2c1c(-c1ccc(Oc3ccccc3)cc1)nn2C1CCN(C2CCN(C(=O)N3CCC(CCCN4CCN(c5ccc6c(c5)C(=O)N(C5CCC(=O)NC5=O)C6=O)CC4)CC3)CC2)CC1 (centres unmarked) . Its DC50 was 10 to 50 nM

Entry under test: NC(=O)c1c(-c2ccc(Oc3ccccc3)cc2)nn2c1NCCC2C1CCN(CC2CCN(CCC3CCN(c4ccc5c(c4)C(=O)N(C4CCC(=O)NC4=O)C5=O)CC3)CC2)CC1 (centres unmarked) . Its DC50 was > 50 nM

Entry under test: NC(=O)c1c(-c2ccc(Oc3ccccc3)cc2)nn2c1NCCC2C1CCN(C(=O)N2CCN(CCC3CCN(c4ccc5c(c4)CN(C4CCC(=O)NC4=O)C5=O)CC3)CC2)CC1 (centres unmarked) . Its DC50 was 10 to 50 nM

Entry under test: NC(=O)c1c(-c2ccc(Oc3ccccc3)cc2)nn2c1NCC[C@H]2C1CCN(CCOCCOCCN2CCN(c3ccc4c(c3)CN(C3CCC(=O)NC3=O)C4=O)CC2)CC1 (some centres unmarked) . Its DC50 was 10 to 50 nM

Cited source for all entries: patent US12139492B2
